assayed-target: kinase domain of IRE1 alpha (His-tagged kinase dead construct KR, AA G547-L977, D688N) (Homo sapiens (Human), UniProt O75460, D688N)
Sequence (O75460 547-977 D688N): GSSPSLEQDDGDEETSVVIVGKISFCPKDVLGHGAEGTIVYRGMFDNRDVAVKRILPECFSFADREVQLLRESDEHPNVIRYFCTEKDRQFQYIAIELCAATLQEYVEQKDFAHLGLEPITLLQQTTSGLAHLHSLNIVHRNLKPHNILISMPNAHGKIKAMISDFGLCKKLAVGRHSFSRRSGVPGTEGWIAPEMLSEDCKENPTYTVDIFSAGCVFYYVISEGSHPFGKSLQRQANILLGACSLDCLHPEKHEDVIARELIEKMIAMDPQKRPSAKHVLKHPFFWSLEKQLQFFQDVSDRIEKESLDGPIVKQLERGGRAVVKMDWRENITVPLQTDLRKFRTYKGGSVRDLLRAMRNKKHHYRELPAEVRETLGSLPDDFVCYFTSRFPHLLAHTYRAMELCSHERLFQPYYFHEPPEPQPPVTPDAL
assay-details: IRE1α TR-FRET competition binding assay
assay-setup: competition with Kinase Tracer 236, 0.1 μM; one hour at room temperature
pIC50: −log10 of the molar value. Counter-ions that a name gives are not always drawn.
measurement-label: pIC50

# annotated cases, reported pIC50 shown
- molecule: "O=S(=O)(Cc1ccccc1)Nc1c(F)cc(Oc2ncccc2-c2ccnc(NC3CNCC4(C3)CC4(F)F)n2)c(F)c1F (single isomer, unassigned) [Compound 300]"
  pIC50: 8.06
- molecule: "Cc1cc(CS(=O)(=O)Nc2c(F)cc(Oc3ncccc3-c3ccnc(N[C@@H]4CNC[C@@](C)(F)C4)n3)c(F)c2F)no1 [Compound 203]"
  pIC50: 8.48
- molecule: "CN1CCN(Cc2ccc(NC(=O)Nc3ccc(Oc4ncccc4-c4ccnc(N[C@@H]5CNC[C@@H](F)C5)n4)cc3)cc2C(F)(F)F)CC1 [Compound 285, hydrochloride]"
  pIC50: 8.05
- molecule: "O=S(=O)(CCC(F)(F)F)Nc1c(F)cc(Oc2ncccc2-c2ccnc(N[C@@H]3CNC[C@@H](F)C3)n2)c(F)c1F [Compound 205]"
  pIC50: 8.36
- molecule: "CCC(F)(F)CS(=O)(=O)Nc1ccc(Oc2ncccc2-c2ccnc(N[C@H]3CCCNC3)n2)c(F)c1F [Compound 148, hydrochloride]"
  pIC50: 8.19
- molecule: "O=S(=O)(CC1CCC1(F)F)Nc1c(F)cc(Oc2ncccc2-c2ccnc(N[C@@H]3CNC[C@@H](F)C3)n2)c(F)c1F (single isomer, unassigned) [Compound 265]"
  pIC50: 8.85
- molecule: "O=S(=O)(Cc1ccncc1)Nc1c(F)cc(Oc2ncccc2-c2ccnc(N[C@@H]3CNC[C@@H](F)C3)n2)c(F)c1F [Compound 359]"
  pIC50: 9.52
- molecule: "O=S(=O)(Cc1ccccc1)Nc1cc(F)c(Oc2ncccc2-c2ccnc(N[C@H]3CCCNC3)n2)cc1F [Compound 107, hydrochloride]"
  pIC50: 8.28

I: O=S(=O)(Cc1ccc(C(F)(F)F)cc1)Nc1c(F)cc(Oc2ncccc2-c2ccnc(N[C@@H]3CNC[C@@H](F)C3)n2)c(F)c1F [Compound 370]
II: O=S(=O)(CC1CC1(F)F)Nc1c(F)cc(Oc2ncccc2-c2ccnc(N[C@@H]3CNC[C@@H](F)C3)n2)c(F)c1F (stereo partly drawn) [Compound 271]
III: Cc1cc(F)ccc1CS(=O)(=O)Nc1c(F)cc(Oc2ncccc2-c2ccnc(N[C@@H]3CNC[C@@H](F)C3)n2)c(F)c1F [Compound 322]
IV: O=S(=O)(Cc1ccccc1)Nc1c(F)cc(Oc2ncccc2-c2ccnc(CC3CCCNC3)n2)c(F)c1F (single isomer, unassigned) [Compound 199]
q: Returns the items ordered by pIC50, from maximum to minimum. Would you mind listing the labels in the order asked for?
a: III, I, II, IV

###

assayed-target: kinase domain of IRE1 alpha (His-tagged kinase dead construct KR, AA G547-L977, D688N) (Homo sapiens (Human), UniProt O75460, D688N)
assay-details: IRE1α TR-FRET competition binding assay
assay-setup: competition with Kinase Tracer 236, 0.1 μM; one hour at room temperature
Structures can show the parent of a compound that is named as a salt.
measurement-label: IC50 (nM)

Use the examples below as a reference point.
- compound: "CC(C)(F)C1CNCC(Nc2nccc(-c3cccnc3Oc3cc(F)c(NS(=O)(=O)Cc4ccccc4)c(F)c3F)n2)C1 (single isomer, unassigned) [Compound 334, hydrochloride]"
  reading-unit: "nM"
  IC50: 9.8
- compound: "O=S(=O)(Cc1ccc(C(F)(F)F)nc1)Nc1c(F)cc(Oc2ncccc2-c2ccnc(N[C@H]3CCCNC3)n2)c(F)c1F"
  reading-unit: "nM"
  IC50: 2.5
- compound: "COC1CNCC(Nc2nccc(-c3cccnc3Oc3cc(F)c(NS(=O)(=O)Cc4ccccc4)c(F)c3F)n2)C1 (single isomer, unassigned) [Compound 318]"
  reading-unit: "nM"
  IC50: 0.3

a: C[C@@]1(F)CNC[C@@H](Nc2nccc(-c3cccnc3Oc3cc(F)c(NS(=O)(=O)Cc4c(F)cccc4F)c(F)c3F)n2)C1
b: CCCCS(=O)(=O)Nc1cc(C)c(Oc2ncccc2-c2ccnc(N[C@H]3CCCNC3)n2)c(F)c1 [Compound 115, hydrochloride]
c: Cc1cc(NS(=O)(=O)Cc2ccccc2)c(F)c(F)c1Oc1ncccc1-c1ccnc(N[C@@H]2CNC[C@@H](F)C2)n1
d: O=S(=O)(Nc1cccc(Oc2ncccc2-c2ccnc(N[C@H]3CCCNC3)n2)c1F)c1ccccc1Cl [Compound 141, hydrochloride]
q: Which order do these items take when sorted by rising IC50? List them. Please write the labels in the order that was asked for.
a: a, c, d, b

I: O=S(=O)(Cc1c(F)cccc1F)Nc1c(F)cc(Oc2ncccc2-c2ccnc(N[C@@H]3CNC[C@@H](F)C3)n2)c(F)c1F
II: O=S(=O)(Cc1ccccc1)Nc1ccc(Oc2ncccc2-c2ccnc(NC3CCNCC3)n2)c(F)c1F
q: Of the pair I and II , name the member with the lesser recorded IC50. Answer by stating the label of the chosen item.
a: I

1: CC(F)C1CNCC(Nc2nccc(-c3cccnc3Oc3cc(F)c(NS(=O)(=O)Cc4ccccc4)c(F)c3F)n2)C1 (single isomer, unassigned) [Compound 348]
2: Cc1cc(CS(=O)(=O)Nc2c(F)cc(Oc3ncccc3-c3ccnc(N[C@H]4CCCNC4)n3)c(F)c2F)no1
3: O=S(=O)(Cc1ccccc1)Nc1c(F)cc(Oc2ncccc2-c2ccnc(NC3CNCC(C(F)F)C3)n2)c(F)c1F (single isomer, unassigned) [Compound 303]
4: CN1CCN(Cc2ccc(NC(=O)Nc3cccc(Oc4ncccc4-c4ccnc(N[C@@H]5CNC[C@@H](F)C5)n4)c3)cc2C(F)(F)F)CC1 [Compound 286, hydrochloride]
q: Hello, I need these entries ordered by IC50, highest reading first. Thanks! Give the labels in the order specified.
a: 4, 3, 2, 1
